MEASURE_NAME: melting point

Consider the following illustrative entries.
COMPOUND | RESULT
COCc1nc(-c2ccc(-c3cnc4[nH]c(=O)n(CC5CCOCC5)c4n3)cc2)n[nH]1 | 273 to 276 °C
CCCCn1ccc(Cc2cnc(N[N+](=O)[O-])[nH]c2=O)cc1=O | 198 to 201 °C
CCC1(C2CCN(c3ncnc4cc(OC)c(OC)cc34)CC2)CO1 (configuration not stated) | 138 to 139 °C
O=C(O)c1cc(F)cc(-c2cccc3cc(Cc4cccc(C(F)(F)F)c4)sc23)c1 | 140 to 142 °C
CCCCSc1cc(C(=O)O)cc(S(N)(=O)=O)c1Cl | 202 to 203 °C

Please supply melting point for each of the following items, keeping them in order.
1. N#Cc1ccccc1/C=C/C(=O)Nc1cc(Cl)cc(NC(=N)c2ccccc2)c1
2. COc1ccc(C(=O)c2c(N)sc3c2CCN(Cc2ccccc2)C3)cc1
3. COC(=O)NNc1n[nH]c2cc(Cl)ccc12

1. 220 to 221 °C
2. 164 to 165 °C
3. 223 to 224 °C

* * *

Consider the following compounds; for each one, report its melting point.

Please supply melting point for each of the following items, keeping them in order.
1. Nc1ccc(C(=O)c2ccccn2)cc1[N+](=O)[O-]
2. N#Cc1c(OCCO)nc(CCO)nc1N1CCc2ccccc2CC1

1: 186 to 187 °C; 2: 118 to 120 °C

Please supply melting point for each of the following items, keeping them in order.
1. CCCn1c(=O)n(CCC)c2cc3c(N4CCN(C(=O)Nc5ccc(Oc6ccccc6)cc5)CC4)ncnc3cc21
2. Nc1ccc2c(c1-c1ccccc1)CCC2

1. 179 to 180 °C
2. 73 to 75 °C

Entry CCCCC1(N(C)C)CCC(c2[nH]c3ccc(C(F)(F)F)cc3c2C)CC1 (stereo not given) has what melting point?
141 to 146 °C

* * *

MEASURE_NAME: melting point

Consider the following illustrative entries.
COMPOUND | melting point
Cc1cc(=O)c(OCc2ccccc2)c(C(=O)NC2CCC2)o1 | 69.3 to 71 °C
COc1cc(-c2cccc(C)c2)cc2oc(=O)c(C)c(C)c12 | 114 °C
COC(=O)c1cc(F)c(O)nc1Nc1ccc(F)cc1F | 222 to 223 °C

Please supply melting point for each of the following items, keeping them in order.
1. O=C(O)c1cnc2c(NC(=O)c3c(Cl)cccc3Cl)cccc2c1
2. Cc1cc(C2CCCCC2)ccc1C(=O)O
3. COc1ccc(N)c(OC)c1COc1cccc2ccc(C)nc12
4. N=C(Nc1ccc2c(C3CN4CCC3CC4)c[nH]c2c1)c1cccs1 (stereo not given)
5. NS(=O)(=O)c1sccc1C(F)=C(F)C(F)(F)F
6. Cn1ccnc1C=NO
7. NC1=C(c2cccc(C(F)(F)F)c2)C(=O)OC1
8. CCOP(=O)(Cc1ccc(C(=O)O)s1)OCC

["> 250 °C", "129 to 130 °C", "208 to 210 °C", "144 to 146 °C", "108 to 111 °C", "170 to 172 °C", "165 °C", "77 to 78 °C"]

* * *

Consider the following compounds; for each one, report its melting point.

Consider the following illustrative entries.
COMPOUND | RESULT
CC(C)COC(=O)N1CCC(c2ccc(COc3ccc(S(C)(=O)=O)cc3)nc2)CC1 | 114 to 117 °C
CC(C(=O)O)c1cc(Cl)c(N2CCOCC2)cc1O (stereo unspecified) | 198 to 200 °C
CNC(=O)c1cc(-c2ccc(OC)cc2)nn(CC2CC2)c1=O | 137 to 138 °C
COC(=O)c1cc2cc([N+](=O)[O-])ccc2o1 | 168 °C

Please supply melting point for each of the following items, keeping them in order.
1. Cc1cccc(NC(=O)NN2CCN(CCc3c[nH]c4ccccc34)CC2)c1
2. Nc1ccnc(N)c1I
3. O=C(NCCSCc1cccc(F)c1)c1c(F)cccc1F
4. O=C(/C=C/c1ccc2c(/C=C/C(=O)N3CCCC3)c[nH]c2c1)N1CCCC1
5. COCCc1nc2c(N)nc3ccccc3c2n1CCOCCNC(=O)c1ccccc1
6. O=C(O)CCC(=O)Cc1ccc2c(c1)Cc1cccnc1O2
7. CC(CN1CCCC1)N1c2ccccc2Sc2ccc(C(=O)NCC3CCC3)cc21 (racemic)

["186 to 188 °C", "140 °C", "39 to 41 °C", "268 to 270 °C", "184 to 187 °C", "146 to 147 °C", "133 °C"]
